Assay: logP determination by HPLC on reversed-phase column (EEC Directive 79/831 Annex V.A8)
Format: physicochemical
Details: reversed-phase C18 HPLC column, Table 1 logP / m.p., C18, 43° C., acidic range (pH 2.3), read-out: logP
Experimental: The given logP values were determined in accordance with EEC Directive 79/831 Annex V.A8 by HPLC (High Performance Liquid Chromatography) on a reversed-phase column (C 18). Temperature: 43° C. […] Calibration was carried out using unbranched alkan-2-ones (having 3 to 16 carbon atoms) with known logP values (determination of the logP values by the retention times using linear interpolation between two successive alkanones).
Reported chromatographic logP values are given for each entry in this list.

| molecule | chromatographic logP |
| --- | --- |
| CC(C)CC(C)c1ccccc1NC(=O)C1=C(C(F)(F)F)OCCS1 (stereo not shown) [Example 18] | 3.92 |
| CC/C(=N\OC)c1ccc(-c2ccccc2NC(=O)C2=C(C(F)(F)F)OCCS2)cc1 [Example 56] | 4.08 |
| CC(C)CC(C)c1ccccc1NC(=O)C1=C(C(F)F)OCCS1 (stereo not shown) [Example 82] | 4.03 |
| O=C(Nc1ccccc1-c1ccc(Cl)c(Cl)c1)C1=C(C(F)(F)F)OCCS1 [Example 19] | 3.91 |
| O=C(Nc1ccccc1-c1ccc(C(F)(F)F)cc1)C1=C(C(F)(F)F)OCCS1 [Example 20] | 3.73 |
| O=C(Nc1ccccc1-c1ccc(C(F)(F)F)c(F)c1)C1=C(C(F)(F)F)OCCS1 [Example 29] | 3.75 |
| O=C(Nc1ccccc1-c1ccc(Br)cc1)C1=C(C(F)(F)F)OCCS1 [Example 27] | 3.7 |
